# assayed_target: UniProtKB P35367
# Sequence (P35367 whole entry): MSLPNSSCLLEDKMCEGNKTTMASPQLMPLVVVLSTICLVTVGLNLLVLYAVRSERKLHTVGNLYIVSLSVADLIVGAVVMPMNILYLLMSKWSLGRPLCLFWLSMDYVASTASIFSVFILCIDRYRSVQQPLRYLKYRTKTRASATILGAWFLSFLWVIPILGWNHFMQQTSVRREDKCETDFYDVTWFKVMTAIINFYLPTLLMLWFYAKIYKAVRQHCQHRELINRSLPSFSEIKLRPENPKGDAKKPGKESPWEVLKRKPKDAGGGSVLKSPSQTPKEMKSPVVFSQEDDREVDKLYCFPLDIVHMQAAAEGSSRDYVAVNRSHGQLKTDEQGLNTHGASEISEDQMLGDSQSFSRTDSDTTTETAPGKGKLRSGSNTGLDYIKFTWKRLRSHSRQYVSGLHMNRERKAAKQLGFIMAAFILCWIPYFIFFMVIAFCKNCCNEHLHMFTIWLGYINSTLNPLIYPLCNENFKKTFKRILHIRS
# run_conditions: U-373MG ATCC
# Description: Histamine H1 receptor antagonistic activity in U373MG human glioblastoma cells using fluorescence-labeled H1 as radioligand in Ca+2 assay
value_kind: pKB

COc1ccc(CN(CCN(C)CCNC(=O)c2ccc(C(=O)O)c(-c3c4ccc(=O)cc-4oc4cc(O)ccc34)c2)c2ccccn2)cc1; 6.93
COc1ccc(CN(CCN(C)CCCCN)c2ccccn2)cc1; 7.61
COc1ccc(CN(CCN(C)CCCCNC(=O)c2ccc(C(=O)O)c(-c3c4ccc(=O)cc-4oc4cc(O)ccc34)c2)c2ccccn2)cc1; 7.81
COc1ccc(CN(CCN(C)CCCCCCNC(=O)c2ccc(-c3c4ccc(=[N+](C)C)cc-4oc4cc(N(C)C)ccc34)c(C(=O)[O-])c2)c2ccccn2)cc1; 7.54
COc1ccc(CN(CCN(C)CCNc2ccc([N+](=O)[O-])c3nonc23)c2ccccn2)cc1; 8.12
COc1ccc(CN(CCN(C)CCCCCCCCNC(=O)c2ccc(-c3c4ccc(=O)cc-4oc4cc(O)ccc34)c(C(=O)O)c2)c2ccccn2)cc1; 8.94
COc1ccc(CN(CCN(C)CCCCCCNC(=O)c2ccc(-c3c4ccc(=O)cc-4oc4cc(O)ccc34)c(C(=O)O)c2)c2ccccn2)cc1; 8.17

* * *

# assayed_target: Histamine H1 receptor (Cavia porcellus, UniProt P31389)
# Sequence (P31389 whole entry): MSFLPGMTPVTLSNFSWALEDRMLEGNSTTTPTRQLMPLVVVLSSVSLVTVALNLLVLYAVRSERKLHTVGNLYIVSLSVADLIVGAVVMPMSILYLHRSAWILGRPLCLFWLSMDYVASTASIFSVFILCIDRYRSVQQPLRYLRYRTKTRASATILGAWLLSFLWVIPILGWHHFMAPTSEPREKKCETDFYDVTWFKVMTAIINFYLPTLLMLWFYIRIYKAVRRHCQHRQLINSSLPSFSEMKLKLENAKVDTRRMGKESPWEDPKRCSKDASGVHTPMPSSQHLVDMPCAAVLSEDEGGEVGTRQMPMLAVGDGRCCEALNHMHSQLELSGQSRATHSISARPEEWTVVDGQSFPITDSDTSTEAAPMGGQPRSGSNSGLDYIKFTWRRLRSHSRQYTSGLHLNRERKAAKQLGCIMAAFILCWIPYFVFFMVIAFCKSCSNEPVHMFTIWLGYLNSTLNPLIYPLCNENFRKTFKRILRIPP
# test: Histamine H1 receptor antagonistic activity in guinea pig ileum […]
# Type: functional, tissue-based
# run_conditions: read-out: pA2 (converted)
value_kind: Kb (nM)

A selection of reference data follows.
COc1ccc(CN(CCN(C)CCCCCCCCNC(=O)c2ccc(-c3c4ccc(=O)cc-4oc4cc(O)ccc34)c(C(=O)O)c2)c2ccccn2)cc1; 3.39
COc1ccc(CN(CCN(C)CCCCN)c2ccccn2)cc1; 22.4
COc1ccc(CN(CCN(C)CCN)c2ccccn2)cc1; 13.2
COc1ccc(CN(CCN(C)CCCCCCNC(=O)c2ccc(-c3c4ccc(=[N+](C)C)cc-4oc4cc(N(C)C)ccc34)c(C(=O)[O-])c2)c2ccccn2)cc1; 33.1

P: COc1ccc(CN(CCN(C)CCCCNC(=O)c2ccc(C(=O)O)c(-c3c4ccc(=O)cc-4oc4cc(O)ccc34)c2)c2ccccn2)cc1
Q: COc1ccc(CN(CCN(C)CCCCCCNC(=O)c2ccc(-c3c4ccc(=O)cc-4oc4cc(O)ccc34)c(C(=O)O)c2)c2ccccn2)cc1
R: COc1ccc(CN(CCN(C)CCCCCCCCN)c2ccccn2)cc1
S: COc1ccc(CN(CCN(C)CCCCCCCCNC(=O)c2ccc(C(=O)O)c(-c3c4ccc(=O)cc-4oc4cc(O)ccc34)c2)c2ccccn2)cc1
Enquiry: # ascending order, key=Kb Return the labels ranked in the requested order, please.
Return: S, R, Q, P
(S: 5.01 nM, R: 9.77 nM, Q: 21.4 nM, P: 31.6 nM)
